In this section we review reported EC50 values for a set of binders.
tested on: T1, SARS-COV-2 RBD (SARS-COV-2, UniProt P0DTC2 319-539)
T1 construct: also called WT RBD
experiment notes: ELISA, RBD coated on plate
Numeric answer only, unit ng/mL assumed.

>>> numeric_readout("C903 (antibody, V domains shown) VH: EVQLVESGGGLIQPGGSLRLSCAASGFIVSRNYMSWVRQAPGKGLEWVSIIYSGGSTFYADSVKGRFTISRDNSKNTVYLQMNSLRAEDTAVYYCARDYGDFYFDYWGQGTLVTVSS VL: EIVLTQSPGTLSLSPGERATLSCRASQSVSSSYLAWYQQKPGQAPRLLIFDVSSRATGIPDRFSGSGSGTDFTLTISRLEPEDFAVYYCQQYGSSPRTFGQGTKVEIK")
2.54

According to the records, this binder C905 (antibody, V domains shown) VH: QVQLQESGPGLVTPSQTLSLTCSVSGGSIHSRDFYWGWIRQHPGKGLEWIGHIYYTGNTYYNPSLKSRVTISADTSKNQFSLKLSSVTAADTAVYYCARATVVITLHWFDPWGQGTLVTVSS VL: NFMLTQPHSVSESPGKTVTISCTGSGGSIASNYVQWYQQRPGSAPTTVIYEDNERPSGVPDRFSGSIDSSSNSASLTISGVKTEDEADYFCQSYDVGNPVIFGGGTKLTVL displays EC50 of 3.06

Recorded EC50 (binder C990 (antibody, V domains shown) VH: EVQLVESGGGLVRPGGSLRLSCAASGFTVGSNFMSWVRQAPGKGLEWVSLIYSGGGTHYAESVKGRFTISRDKSKNTLYLQMNSLRAEDTAVYYCANQGYYYYMDVWGKGTTVTVS VL: QSALTQPASVSGSPGQSITISCTGTSSDVGAYNYVSWHQHHPGKAPKLIIYDVSNRPSGVSNRFSGSKSGNTASLTISGLQAEDEADYYCTSYTNTTTPWVFGGGTKLTVL ): 1.85

Query C1025 (antibody, V domains shown) VH: EVQLVESGGGLVQPGRSLRLSCAASGFTFDDYAMHWVRQVPGKGLEWVSGVSWNGDSVGYADSMEGRFTISRDNAKNSLYLQMNSLRTEDTALYYCAKGVDYSSSSNFDFWGQGTLVTVSS VL: DIQMTQSPSSVSASVGDRVTITCRASQGISSWLAWYQQKPGKAPKLLISLASSLQSGVPSRFSGSGSETDFTLIISSLQPEDFATYYCQQSSSFPLTFGGGTKVEIK yields EC50 of 2.51

EC50 measured on C1000 (antibody, V domains shown) VH: QVQLQESGPGLVKPSQTLSLSCTVSGGSISSDDYYWSWIRQPPGKGLEWIGYIYYSGSTYYNSSLKSRVSISVDTSKNQFSLKLSSVTAADTAVYYCARWKRWLQFLYFDYWGQGTLVTVSS VL: QSALTQPRSVSGSPGQSVTISCTGTSSDVGGYSFVSWYQQHPGKAPKVLIYDVDKRPSGVPDRLSGSKSGNTASLTISGLQAEDEADYYCCSYAGSYTLIFGGGTKLTVL = 3.2

Measured values drawn from patent US20240218057A1 for this set.
